target: UniProtKB Q99707; assay: Inhibition of methionine synthase (unknown origin) by cell free assay; design: concentration or dose not given beside the values; conditions: concentration not given here
Sequence (Q99707 whole entry): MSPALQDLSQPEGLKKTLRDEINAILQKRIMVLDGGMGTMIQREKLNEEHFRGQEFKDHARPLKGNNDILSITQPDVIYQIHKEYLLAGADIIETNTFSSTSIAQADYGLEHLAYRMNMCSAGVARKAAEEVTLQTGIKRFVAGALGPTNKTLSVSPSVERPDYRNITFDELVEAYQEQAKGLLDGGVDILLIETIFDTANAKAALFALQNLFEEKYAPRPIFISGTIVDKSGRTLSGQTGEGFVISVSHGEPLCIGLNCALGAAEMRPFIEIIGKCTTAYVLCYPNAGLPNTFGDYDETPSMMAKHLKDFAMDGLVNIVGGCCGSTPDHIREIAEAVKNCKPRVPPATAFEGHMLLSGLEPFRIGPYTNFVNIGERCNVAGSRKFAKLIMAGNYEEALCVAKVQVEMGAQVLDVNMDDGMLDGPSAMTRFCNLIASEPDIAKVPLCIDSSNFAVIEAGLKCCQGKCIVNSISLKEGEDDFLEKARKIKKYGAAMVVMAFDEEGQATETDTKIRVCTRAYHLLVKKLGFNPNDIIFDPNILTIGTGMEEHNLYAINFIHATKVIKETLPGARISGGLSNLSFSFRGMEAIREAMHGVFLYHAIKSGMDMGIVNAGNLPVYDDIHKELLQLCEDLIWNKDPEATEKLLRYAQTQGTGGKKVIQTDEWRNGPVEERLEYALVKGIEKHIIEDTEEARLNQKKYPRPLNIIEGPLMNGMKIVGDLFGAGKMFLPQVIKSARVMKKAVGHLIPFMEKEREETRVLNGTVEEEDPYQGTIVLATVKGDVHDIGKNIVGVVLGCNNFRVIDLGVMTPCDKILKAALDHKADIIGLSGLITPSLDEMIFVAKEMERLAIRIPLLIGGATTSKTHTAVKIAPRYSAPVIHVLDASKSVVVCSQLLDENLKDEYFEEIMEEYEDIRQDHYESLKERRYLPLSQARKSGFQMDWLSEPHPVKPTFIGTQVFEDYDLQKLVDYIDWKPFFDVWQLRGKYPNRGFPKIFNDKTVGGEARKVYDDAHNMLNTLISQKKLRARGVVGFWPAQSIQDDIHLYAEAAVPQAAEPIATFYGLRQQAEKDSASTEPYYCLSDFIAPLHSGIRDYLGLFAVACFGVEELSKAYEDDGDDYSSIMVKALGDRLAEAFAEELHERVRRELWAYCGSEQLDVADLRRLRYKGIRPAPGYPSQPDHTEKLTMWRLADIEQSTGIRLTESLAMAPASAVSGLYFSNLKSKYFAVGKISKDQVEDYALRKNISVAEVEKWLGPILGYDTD
endpoint.label: inhibition (%)

Would you please look over these solved cases?
INSERT INTO measurements (entry_smiles, endpoint_label, result_value) VALUES
  ('Cc1ccc(NCc2cnc3cc([N+](=O)[O-])ccc3n2)cc1', 'inhibition', 65),
  ('O=[N+]([O-])c1ccc2nc(CNc3ccccc3)cnc2c1', 'inhibition', 65.9),
  ('Cc1cccc(NCc2cnc3cc([N+](=O)[O-])ccc3n2)c1', 'inhibition', 45),
  ('O=[N+]([O-])c1ccc2nc(CNc3ccc(Cl)cc3)cnc2c1', 'inhibition', 45);

P = O=[N+]([O-])c1ccc2nc(CCl)cnc2c1
Q = O=C(O)c1ccc(NCc2cnc3cc([N+](=O)[O-])ccc3n2)cc1
QUERY: Which of the two gives a bigger number for inhibition: P or Q ? Let me know the label of the one you choose.
RESULT: Q
(Q: 89%, P: 55%)

Data provenance: ChEMBL document CHEMBL3045876
